Below are IC50 values for PDHK2 (Homo sapiens, UniProt Q15119) collected from several publications.

Some molecules with recorded IC50:
• C[C@@](O)(C(=O)N1CCC(c2ccnn2-c2ccc(C(F)(F)F)nc2)CC1)C(F)(F)F = 0.3 to 3 µM
• COc1ncc(F)c(-n2ncc3c2[C@@H](C)CN(C(=O)[C@@](C)(O)C(F)(F)F)C3)n1 = 0.3 to 3 µM
• C[C@@](O)(C(=O)N1CCC(c2ccnn2-c2cccc(Cl)c2F)CC1)C(F)(F)F = < 0.3 µM
• CCN(C(=O)c1ccc(C#N)cc1)C1CCN(C(=O)[C@@](C)(O)C(F)(F)F)CC1 = 2.1 µM
• C[C@@](O)(C(=O)N1CCC(c2cc(C(F)(F)F)nn2-c2ccccc2)CC1)C(F)(F)F = 0.3 to 3 µM
• C[C@H]1CN(C(=O)[C@@](C)(O)C(F)(F)F)Cc2cnn(-c3ccccc3F)c21 = 0.3 to 3 µM
• C[C@H]1CN(C(=O)[C@@](C)(O)C(F)(F)F)CC[C@H]1c1ccnn1-c1ccc(F)cc1F = < 0.3 µM

-- ask Could you share which IC50 value was measured for `C[C@@H]1CN(C(=O)[C@@](C)(O)C(F)(F)F)Cc2cnn(-c3ncccc3F)c21` ?
-- reply < 0.3 µM

###

Below are IC50 values for UniProtKB Q15119 collected from several publications.

• C[C@@H]1CN(C(=O)[C@@](C)(O)C(F)(F)F)CC[C@@H]1C1(c2nnc(-c3ccc(Cl)cc3)[nH]2)CC1 = 180 nM
• C[C@H]1CN(C(=O)[C@@](C)(O)C(F)(F)F)Cc2cnn(-c3ccc(F)cc3F)c21 = 300 to 3000 nM
• C[C@@H]1CN(C(=O)[C@@](C)(O)C(F)(F)F)CC[C@@H]1c1ccnn1-c1ccc(F)cc1 = < 300 nM

Now take the following compound into account.
-- ask Could you share which IC50 value was measured for `C[C@@H]1CN(C(=O)[C@@](C)(O)C(F)(F)F)CC[C@@H]1C1(c2nnc(-c3ccc(Cl)cc3)o2)CC1` ?
-- reply 130 nM

###

Below are IC50 values for PDHK2 (Homo sapiens, UniProt Q15119) collected from several publications.

Some compounds with recorded IC50:
- C[C@@](O)(C(=O)N1CCC(n2cncc2-c2ccc(Cl)cc2)CC1)C(F)(F)F: < 300 nM
- C[C@H]1CN(C(=O)[C@@](C)(O)C(F)(F)F)Cc2cnc(-c3ccc(F)cc3)n21: 3000 to 50000 nM

For each of the items listed, what is its IC50?
1. C[C@@H]1CN(C(=O)[C@@](C)(O)C(F)(F)F)CC[C@@H]1C1(c2nnc(-c3ccccc3)[nH]2)CC1
2. C[C@@](O)(C(=O)N1CCC(c2cncn2-c2ccc(Cl)cc2F)CC1)C(F)(F)F
3. C[C@@](O)(C(=O)N1CCC(c2ccnn2-c2ccc(F)cc2F)CC1)C(F)(F)F
4. Cc1nnc(C2(C3CCN(C(=O)[C@@](C)(O)C(F)(F)F)CC3)CC2)o1
5. COCCn1nccc1C1CCN(C(=O)[C@@](C)(O)C(F)(F)F)CC1
6. C[C@@H]1CN(C(=O)[C@@](C)(O)C(F)(F)F)Cc2cnn(-c3ccc(F)cc3)c21
7. C[C@H]1CN(C(=O)[C@@](C)(O)C(F)(F)F)Cc2cnn(-c3ncc(F)cc3F)c21

-- reply
1. 130 nM
2. < 300 nM
3. < 300 nM
4. 3500 nM
5. 300 to 3000 nM
6. < 300 nM
7. 300 to 3000 nM

###

Below are IC50 values for UniProt Q15119 collected from several publications.
Give bare numbers, in nM.

- Cc1ccc(C(=O)N(C)[C@@H]2CCN(C(=O)[C@@](C)(O)C(F)(F)F)C[C@@H]2C)cc1: 2700

For each of the items listed, what is its IC50?
1. COc1ccc(C(=O)N(C)[C@H]2CCN(C(=O)[C@@](C)(O)C(F)(F)F)C[C@H]2C)cc1
2. CC(C)(O)CCOc1cc(-c2cnn(CC(C)(C)O)c2)c2c(c1)[C@@](O)(C(F)(F)F)c1ccccc1-2
3. C[C@@](O)(C(=O)N1CCC(C2(c3nnc(-c4ccccc4)[nH]3)CC2)CC1)C(F)(F)F

-- reply
1: 310; 2: 4.6; 3: 590

###

Below are IC50 values for PDHK2 (Homo sapiens) collected from several publications.

Some compounds with recorded IC50:
- C[C@@](O)(C(=O)N1CCc2c(cnn2-c2ccccc2)C1)C(F)(F)F: < 300 nM
- C[C@@](O)(C(=O)N1CCc2nn(-c3ccc(Cl)cc3)cc2C1)C(F)(F)F: 3000 to 50000 nM
- COc1ccc(-n2cncc2C2CCN(C(=O)[C@@](C)(O)C(F)(F)F)CC2)cc1: 300 to 3000 nM

For each of the items listed, what is its IC50?
1. CN(C(=O)C1CCN(C(=O)[C@@](C)(O)C(F)(F)F)CC1)c1ccc(Cl)cc1
2. Cc1csc(-n2nccc2C2CCN(C(=O)[C@@](C)(O)C(F)(F)F)CC2)n1
3. C[C@@](O)(C(=O)N1CCC(c2ccnn2-c2ccc(C(F)(F)F)cn2)CC1)C(F)(F)F

-- reply
1. 590 nM
2. 300 to 3000 nM
3. 300 to 3000 nM

###

Below are pIC50 values for PDHK2 (Homo sapiens) collected from several publications.
pIC50: −log10 of the molar value.

Some compounds with recorded pIC50:
- C[C@@](O)(C(=O)N1CCC(c2ccnn2-c2ccc(F)cc2Cl)CC1)C(F)(F)F: > 6.52
- C[C@@H]1CN(C(=O)[C@@](C)(O)C(F)(F)F)Cc2cnn(-c3ccccc3)c21: > 6.52
- CC1CN(C(=O)[C@@](C)(O)C(F)(F)F)CCC1c1ccnn1-c1ccc(F)cc1F (mixture of isomers): > 6.52
- C[C@H]1CN(C(=O)[C@@](C)(O)C(F)(F)F)CC[C@H]1C(=O)N(C)c1ccc(Cl)cc1: 5.42
- CC(C)(c1nnc(C2CCCCC2)o1)C1CCN(C(=O)[C@@](C)(O)C(F)(F)F)CC1: 6.40
- C[C@@H]1CN(C(=O)[C@@](C)(O)C(F)(F)F)Cc2cnn(C3CCC(O)CC3)c21 (some centres unmarked): > 6.52

For each of the items listed, what is its pIC50?
1. C[C@@](O)(C(=O)N1CCC(c2cnnn2-c2ccc(Cl)cc2)CC1)C(F)(F)F
2. C[C@H]1CN(C(=O)[C@@](C)(O)C(F)(F)F)CC[C@H]1C1(c2nnc(-c3ccc(Cl)cc3)o2)CC1
3. C[C@@](O)(C(=O)N1CCC(c2ccnn2-c2ccc(C#N)nc2)CC1)C(F)(F)F
4. C[C@@](O)(C(=O)N1CCC(c2cncn2-c2ccc(F)cc2)CC1)C(F)(F)F
5. C[C@@](O)(C(=O)N1CCC(c2ccnn2-c2ncc(F)cc2F)CC1)C(F)(F)F

-- reply
5.52 to 6.52
5.09
5.52 to 6.52
5.52 to 6.52
> 6.52
